ASSAY_SYSTEM: T1, human activated protein C (human, UniProt P04070 43-197; P04070 212-461)
T1 construct: also called human aPC; human APC
EXPERIMENT_NOTES: SPR (Biacore), 1:1 binding model
koff by entry:
Respond with the bare value in s⁻¹.

The cases that follow already have their koff on record.
Give koff for the following binder: 1573 mouse (antibody, V domains shown, Parental murine monoclonal antibody; also called mouse aPC monoclonal antibody 1573; HAPC1573) VH: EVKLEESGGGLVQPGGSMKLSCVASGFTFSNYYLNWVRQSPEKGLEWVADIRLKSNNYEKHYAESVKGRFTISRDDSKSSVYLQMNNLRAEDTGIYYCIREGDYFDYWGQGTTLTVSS VL: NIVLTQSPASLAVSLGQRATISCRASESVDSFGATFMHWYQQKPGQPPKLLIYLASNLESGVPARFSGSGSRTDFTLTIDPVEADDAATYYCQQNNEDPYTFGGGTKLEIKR
0.0052

Give koff for the following binder: Hu1573-15 (antibody, V domains shown, Humanized IgG, human gamma 1 / kappa constant regions by vectors pCP-hCg1 and pCP-hck; also called H1573VH.1F + H1573Vk.2) VH: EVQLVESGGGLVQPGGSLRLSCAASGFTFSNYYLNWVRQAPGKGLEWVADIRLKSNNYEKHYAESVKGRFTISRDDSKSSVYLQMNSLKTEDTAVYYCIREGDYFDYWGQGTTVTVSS VL: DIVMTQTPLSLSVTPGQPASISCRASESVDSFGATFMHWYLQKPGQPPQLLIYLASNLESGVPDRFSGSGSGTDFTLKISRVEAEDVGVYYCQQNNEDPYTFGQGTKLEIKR
0.00845

Next:
Give koff for the following binder: Hu1573-12 (antibody, V domains shown, Humanized IgG, human gamma 1 / kappa constant regions by vectors pCP-hCg1 and pCP-hck; also called H1573VH.1E + H1573Vk.2) VH: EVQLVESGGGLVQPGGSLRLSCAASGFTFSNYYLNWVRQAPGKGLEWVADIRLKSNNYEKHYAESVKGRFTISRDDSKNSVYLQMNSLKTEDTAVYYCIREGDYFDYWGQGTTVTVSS VL: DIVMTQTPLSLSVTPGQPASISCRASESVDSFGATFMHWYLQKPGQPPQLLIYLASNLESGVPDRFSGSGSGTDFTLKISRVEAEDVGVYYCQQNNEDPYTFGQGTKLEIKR
0.00844

Ref: patent USRE49099
